- targetDesc: L-type Ca2+ channel
- assayRemarks: inhibition of tritiated dihydropyridine PN-200 binding to the L-type Ca2+ channel
- studyConditions: in words
recordedMetric: L-channel IC50

NC[C@@H]1O[C@H](O[C@H]2[C@@H](O)[C@H](O[C@@H]3[C@@H](O)[C@H](N)C[C@H](N)[C@H]3O[C@H]3O[C@H](CO)[C@@H](O)C[C@H]3N)O[C@@H]2CO)[C@H](N)[C@@H](O)[C@@H]1O[C@H]1O[C@H](CO)[C@@H](O)[C@H](O)[C@@H]1O No inhibition
NC[C@@H]1O[C@H](O[C@H]2[C@@H](O)[C@H](O[C@@H]3[C@@H](O)[C@H](N)C[C@H](N)[C@H]3O[C@H]3O[C@H](CO)[C@@H](O)[C@H](O)[C@H]3N)O[C@@H]2CO)[C@H](N)[C@@H](O)[C@@H]1O No inhibition
NC[C@H]1O[C@H](O[C@H]2[C@H](O)[C@@H](O[C@H]3O[C@H](CO)[C@@H](O)[C@H](N)[C@H]3O)[C@H](N)C[C@@H]2N)[C@H](O)[C@@H](O)[C@@H]1O No inhibition

====

- Tested on: N-type calcium channels (N-channels)
- Type: binding, rats or mice
- studyConditions: omega-conotoxin binding, brain membrane fragments; read-out: N-channel IC50
recordedMetric: IC50

molecule	IC50
CN[C@@H]1[C@@H](O)[C@@H](O[C@@H]2[C@@H](O)[C@H](O[C@H]3OC(CN)=CC[C@H]3N)[C@@H](N)C[C@H]2N)OC[C@]1(C)O	5 to 10 µM
NC[C@H]1O[C@H](O[C@H]2[C@H](O)[C@@H](O[C@H]3O[C@H](CO)[C@@H](O)[C@H](N)[C@H]3O)[C@H](N)C[C@@H]2N)[C@H](N)[C@@H](O)[C@@H]1O	> 100 µM
CNC1C(OC2C(OC3C(O)C(O)C(N=C(N)N)C(O)C3N=C(N)N)OC(C)C2(O)CO)OC(CO)C(O)C1O (centres unmarked) [Dihydrostreptomicin]	> 50 µM
C[C@H]1O[C@H](O[C@H]2[C@H](O)[C@@H](O)[C@@H](O)[C@H](O)[C@@H]2O)[C@@H](N)C[C@@H]1NC(=N)C(=O)O	> 1000 µM

Proceed to the following item.
Reported IC50 ( CNC1C(O)C(NC)C2OC3(O)C(=O)CC(C)OC3OC2C1O (centres unmarked) ) = > 1000 µM
